- Test system: P. aeruginosa ATCC 35151
- ASSAY DETAILS: Broth microdilution MIC in CAMHB
- Format: cell-based
- SETUP CONDITIONS: Pseudomonas aeruginosa, ATCC35151; MHB; hyper-permeable strain; read-out: Minimum Inhibitory Concentration, P. aeruginosa ATCC 35151
Here, each record is paired with measured MIC data.
VALUE KIND: MIC

>>> endpoint_value("CCN1CCN(C(=O)N[C@@H](C(=O)N[C@H]2Cc3cccc(C(=O)O)c3OB2O)c2ccc(C(=O)O)cc2O)C(=O)C1=O (single isomer, unassigned) [Example 144]")
"0.5 to 1 µg/mL"
>>> endpoint_value("NCCN1CCN(C(=O)N[C@@H](C(=O)N[C@H]2Cc3cccc(C(=O)O)c3OB2O)c2ccc(O)c(F)c2F)C(=O)C1=O (single isomer, unassigned) [Example 170]")
"< 0.25 µg/mL"
>>> endpoint_value("NCCN1CCN(C(=O)N[C@H](C(=O)N[C@H]2Cc3cccc(C(=O)O)c3OB2O)c2ccc(O)cc2F)C(=O)C1=O (single isomer, unassigned) [Example 88]")
"2 to 4 µg/mL"
>>> endpoint_value("CCN1CCN(C(=O)NC(C(=O)N[C@H]2Cc3cccc(C(=O)O)c3OB2O)c2c(F)c(O)cc(O)c2F)C(=O)C1=O (stereo partly shown) [Example 106]")
"2 to 4 µg/mL"
>>> endpoint_value("CCN1CCN(C(=O)NC(C(=O)N[C@H]2Cc3cccc(C(=O)O)c3OB2O)c2ccc(O)c(N(S(C)(=O)=O)S(C)(=O)=O)c2)C(=O)C1=O (stereo partly shown) [Example 21]")
"2 to 4 µg/mL"
>>> endpoint_value("CCN1CCN(C(=O)NC(C(=O)N[C@H]2Cc3ccc(SCCNCCN)c(C(=O)O)c3OB2O)c2csc(N)n2)C(=O)C1=O (stereo partly shown) [Example 66]")
"8 to 16 µg/mL"
>>> endpoint_value("N=C(N)NCCN1CCN(C(=O)NC(C(=O)N[C@H]2Cc3ccc(F)c(C(=O)O)c3OB2O)c2ccc(C(=O)O)c(F)c2)C(=O)C1=O (stereo partly shown) [Example 78]")
"0.5 to 1 µg/mL"

---

# MIC per entry
- Test system: N. gonorrhoeae H041
- ASSAY DETAILS: Liquid broth MIC in Fastidious broth
- Assay type: cell-based
- SETUP CONDITIONS: Neisseria gonorrhoeae, H041, read-out: Minimum Inhibitory Concentration, N. gonorrhoeae H041
VALUE KIND: MIC

>>> endpoint_value("CCN1CCN(C(=O)NC(C(=O)N[C@H]2Cc3cccc(C(=O)O)c3OB2O)c2cccc(NS(N)(=O)=O)c2)C(=O)C1=O (stereo partly drawn) [Example 98]")
"16 to 32 µg/mL"
>>> endpoint_value("NCCN1CCN(C(=O)N[C@@H](C(=O)N[C@H]2Cc3cccc(C(=O)O)c3OB2O)c2c(O)cc(O)cc2F)C(=O)C1=O (single isomer, unassigned) [Example 194]")
"> 64 µg/mL"
>>> endpoint_value("CCN1CCN(C(=O)NC(C(=O)N[C@H]2Cc3cccc(C(=O)O)c3OB2O)c2c(F)cc(C(=O)O)cc2F)C(=O)C1=O (stereo partly drawn) [Example 157]")
"16 to 32 µg/mL"
>>> endpoint_value("NCCN1CCN(C(=O)NC(C(=O)N[C@H]2Cc3cccc(C(=O)O)c3OB2O)c2ccc(C(=O)O)cc2O)C(=O)C1=O (stereo partly drawn) [Example 142]")
"> 64 µg/mL"
>>> endpoint_value("CCN1CCN(C(=O)NC(C(=O)N[C@H]2Cc3ccc(OCCN)c(C(=O)O)c3OB2O)c2ccccc2)C(=O)C1=O (stereo partly drawn) [Example 60]")
"> 64 µg/mL"
>>> endpoint_value("CCN1CCN(C(=O)NC(C(=O)N[C@H]2Cc3cccc(C(=O)O)c3OB2O)c2cc(F)c(O)cc2Cl)C(=O)C1=O (stereo partly drawn) [Example 103]")
"16 to 32 µg/mL"
>>> endpoint_value("CCN1CCN(C(=O)NC(C(=O)N[C@H]2Cc3cccc(C(=O)O)c3OB2O)c2cc(F)c(O)c(Cl)c2)C(=O)C1=O (stereo partly drawn) [Example 164]")
"16 to 32 µg/mL"
>>> endpoint_value("NCCN1CCN(C(=O)N[C@H](C(=O)N[C@H]2Cc3cccc(C(=O)O)c3OB2O)c2cc(F)c(O)c(F)c2)C(=O)C1=O (single isomer, unassigned) [Example 158]")
"> 64 µg/mL"
>>> endpoint_value("CCN1CCN(C(=O)NC(C(=O)N[C@H]2Cc3cccc(C(=O)O)c3OB2O)c2ccc(O)c(NC(C)=O)c2)C(=O)C1=O (stereo partly drawn) [Example 17]")
"> 64 µg/mL"

Reference source for all entries: patent US20230114728A1
